assay: Inhibition of pre-miR-17 (unknown origin) cleavage assessed as reduction of oncogenic microRNAs biogenesis at 200 uM by measuring fluorescence every minute for 5 hrs using 5'-FAM,3'-dabcyl-pre-miRNA beacons by FRET assay in presence of recombinant Dicer
Calls of active or inactive are those of the source. The rule behind the calls is not given here.

Item smiles	inhibition
NC[C@H]1O[C@H](O[C@H]2[C@H](O)[C@@H](O[C@H]3O[C@H](CO)[C@@H](O)[C@H](N)[C@H]3O)[C@H](N)C[C@@H]2N)[C@H](N)[C@@H](O)[C@@H]1O	inactive
C[C@H]1c2cccc(O)c2C(=O)C2=C(O)[C@]3(O)C(=O)C(C(N)=O)=C(O)[C@@H](N(C)C)[C@@H]3[C@@H](O)[C@@H]21	20%
CN[C@@H]1[C@H](O[C@H]2[C@H](O[C@H]3[C@H](O)[C@@H](O)[C@H](N=C(N)N)[C@@H](O)[C@@H]3N=C(N)N)O[C@@H](C)[C@]2(O)C=O)O[C@@H](CO)[C@H](O)[C@H]1O	inactive
CN(C)c1ccc(O)c2c1C[C@H]1C[C@H]3[C@H](N(C)C)C(O)=C(C(N)=O)C(=O)[C@@]3(O)C(O)=C1C2=O	30%
NC[C@H]1O[C@H](O[C@H]2[C@H](O)[C@@H](O)[C@H](N)C[C@@H]2N)[C@H](N)[C@@H](O)[C@@H]1O	10%
CN[C@@H]1[C@H](O)[C@H](NC)[C@H]2O[C@@]3(O)C(=O)C[C@@H](C)O[C@H]3O[C@@H]2[C@H]1O	inactive

====

assay: Binding affinity to 5'-FAM-pre-miR-17 (unknown origin) after 4 hrs by fluorescence assay; conditions: read-out: Kd
pKd: −log10 of the molar value.
Property label: pKd

Query sequence	Measured value
GENTAMICIN	5.30

====

experiment: Inhibition of pre-miR-21 (unknown origin) cleavage assessed as reduction of oncogenic microRNAs biogenesis by measuring fluorescence every minute for 5 hrs using 5'-FAM,3'-dabcyl-pre-miRNA beacons by FRET assay in presence of recombinant Dicer
pIC50: −log10 of the molar value.
Listed next: entries and their corresponding pIC50.
Property label: pIC50

Compound	Measured value
CN[C@@H]1[C@@H](O[C@H]2O[C@H](CO)[C@@H](N)[C@H](O)[C@H]2O)OC2C[C@@H](N)[C@@H](O[C@H]3[C@H](O)[C@@H](O)[C@H](N)C[C@@H]3N)OC2[C@@H]1O (some centres not stated)	3.77
CN(C)c1ccc(O)c2c1C[C@H]1C[C@H]3[C@H](N(C)C)C(O)=C(C(N)=O)C(=O)[C@@]3(O)C(O)=C1C2=O	3.43
NC[C@@H]1O[C@H](O[C@H]2[C@@H](O)[C@H](O[C@@H]3[C@@H](O)[C@H](N)C[C@H](N)[C@H]3O[C@H]3O[C@H](CO)[C@@H](O)[C@H](O)[C@H]3N)O[C@@H]2CO)[C@H](N)[C@@H](O)[C@@H]1O	3.27
NC[C@@H]1O[C@H](O[C@H]2[C@@H](O)[C@H](O[C@@H]3[C@@H](O)[C@H](N)C[C@H](N)[C@H]3O[C@H]3O[C@H](CN)[C@@H](O)[C@H](O)[C@H]3N)O[C@@H]2CO)[C@H](N)[C@@H](O)[C@@H]1O	4.12
CN(C)[C@@H]1C(O)=C(C(N)=O)C(=O)[C@@]2(O)C(O)=C3C(=O)c4c(O)cccc4[C@@](C)(O)[C@H]3[C@H](O)[C@@H]12	3.21
CN[C@@H]1[C@H](O[C@H]2[C@H](O[C@H]3[C@H](O)[C@@H](O)[C@H](N=C(N)N)[C@@H](O)[C@@H]3N=C(N)N)O[C@@H](C)[C@]2(O)C=O)O[C@@H](CO)[C@H](O)[C@H]1O	3.16
C[C@H]1c2cccc(O)c2C(=O)C2=C(O)[C@]3(O)C(=O)C(C(N)=O)=C(O)[C@@H](N(C)C)[C@@H]3[C@@H](O)[C@@H]21	3.26

====

test: Binding affinity to 5'-FAM-pre-miR-372 (unknown origin) after 4 hrs by fluorescence assay; conditions: read-out: Kd
Property label: Kd (µM)

Item smiles	Measured value
NC[C@H]1O[C@H](O[C@H]2[C@H](O)[C@@H](O)[C@H](N)C[C@@H]2N)[C@H](N)[C@@H](O)[C@@H]1O	160
COc1ccc(C[C@H](N)C(=O)N[C@H]2[C@@H](O)[C@H](n3cnc4c(N(C)C)ncnc43)O[C@@H]2CO)cc1	11.8
CN[C@@H]1[C@H](O[C@H]2[C@H](O[C@H]3[C@H](O)[C@@H](O)[C@H](N=C(N)N)[C@@H](O)[C@@H]3N=C(N)N)O[C@@H](C)[C@]2(O)C=O)O[C@@H](CO)[C@H](O)[C@H]1O	26.8
CC[C@H]1OC(=O)[C@H](C)[C@@H](O[C@H]2C[C@@](C)(OC)[C@@H](O)[C@H](C)O2)[C@H](C)[C@@H](O[C@@H]2O[C@H](C)C[C@H](N(C)C)[C@H]2O)[C@](C)(O)C[C@@H](C)C(=O)[C@H](C)[C@@H](O)[C@]1(C)O	6.11

====

assay: Ratio of Kd for 5'-FAM-pre-miR-372 (unknown origin) in presence of 100-fold excess of 15-mer DNA to Kd for 5'-FAM-pre-miR-372 (unknown origin)
Listed next: entries and their corresponding Ratio.
Property label: Ratio

Item smiles	Property label	Measured value
NC[C@@H]1O[C@H](O[C@H]2[C@@H](O)[C@H](O[C@@H]3[C@@H](O)[C@H](N)C[C@H](N)[C@H]3O[C@H]3O[C@H](CN)[C@@H](O)[C@H](O)[C@H]3N)O[C@@H]2CO)[C@H](N)[C@@H](O)[C@@H]1O	Ratio	1
CN(C)[C@@H]1C(O)=C(C(N)=O)C(=O)[C@@]2(O)C(O)=C3C(=O)c4c(O)cccc4[C@@](C)(O)[C@H]3[C@H](O)[C@@H]12	Ratio	1.6
CN(C)c1ccc(O)c2c1C[C@H]1C[C@H]3[C@H](N(C)C)C(O)=C(C(N)=O)C(=O)[C@@]3(O)C(O)=C1C2=O	Ratio	2.4
C[C@H]1c2cccc(O)c2C(=O)C2=C(O)[C@]3(O)C(=O)C(C(N)=O)=C(O)[C@@H](N(C)C)[C@@H]3[C@@H](O)[C@@H]21	Ratio	1.8
CC[C@H]1OC(=O)[C@H](C)[C@@H](O[C@H]2C[C@@](C)(OC)[C@@H](O)[C@H](C)O2)[C@H](C)[C@@H](O[C@@H]2O[C@H](C)C[C@H](N(C)C)[C@H]2O)[C@](C)(O)C[C@@H](C)CN(C)[C@H](C)[C@@H](O)[C@]1(C)O	Ratio	4.5

====

assay: Inhibition of pre-miR-372 (unknown origin) cleavage assessed as reduction of oncogenic microRNAs biogenesis by measuring fluorescence every minute for 5 hrs using 5'-FAM,3'-dabcyl-pre-miRNA beacons by FRET assay in presence of recombinant Dicer
pIC50: −log10 of the molar value.
Listed next: entries and their corresponding pIC50.

Compound	pIC50
NC[C@H]1O[C@H](O[C@H]2[C@H](O)[C@@H](O)[C@H](N)C[C@@H]2N)[C@H](N)[C@@H](O)[C@@H]1O	3.53
NC[C@@H]1O[C@H](O[C@H]2[C@@H](O)[C@H](O[C@@H]3[C@@H](O)[C@H](N)C[C@H](N)[C@H]3O[C@H]3O[C@H](CN)[C@@H](O)[C@H](O)[C@H]3N)O[C@@H]2CO)[C@H](N)[C@@H](O)[C@@H]1O	4.05
CN[C@@H]1[C@@H](O[C@H]2O[C@H](CO)[C@@H](N)[C@H](O)[C@H]2O)OC2C[C@@H](N)[C@@H](O[C@H]3[C@H](O)[C@@H](O)[C@H](N)C[C@@H]3N)OC2[C@@H]1O (stereo partly drawn)	3.79
CN[C@@H]1[C@H](O[C@H]2[C@H](O[C@H]3[C@H](O)[C@@H](O)[C@H](N=C(N)N)[C@@H](O)[C@@H]3N=C(N)N)O[C@@H](C)[C@]2(O)C=O)O[C@@H](CO)[C@H](O)[C@H]1O	3.17
CN(C)[C@@H]1C(O)=C(C(N)=O)C(=O)[C@@]2(O)C(O)=C3C(=O)c4c(O)cccc4[C@@](C)(O)[C@H]3[C@H](O)[C@@H]12	3.18
C[C@H]1c2cccc(O)c2C(=O)C2=C(O)[C@]3(O)C(=O)C(C(N)=O)=C(O)[C@@H](N(C)C)[C@@H]3[C@@H](O)[C@@H]21	3.25
CN(C)c1ccc(O)c2c1C[C@H]1C[C@H]3[C@H](N(C)C)C(O)=C(C(N)=O)C(=O)[C@@]3(O)C(O)=C1C2=O	3.40
NC[C@@H]1O[C@H](O[C@H]2[C@@H](O)[C@H](O[C@@H]3[C@@H](O)[C@H](N)C[C@H](N)[C@H]3O[C@H]3O[C@H](CO)[C@@H](O)[C@H](O)[C@H]3N)O[C@@H]2CO)[C@H](N)[C@@H](O)[C@@H]1O	3.11
